Test system: Cryptococcus neoformans
Test: Evaluation of In vitro antifungal activity against Cryptococcus neoformans 87 by broth macro dilution method
Type: functional
Please provide measured MIC for the entries that follow.

Observed MIC, Cryptococcus neoformans, C[C@@H](NC(=O)c1ccc(C(F)(F)F)cc1)[C@](O)(Cn1cncn1)c1ccc(F)cc1F : 0.5 µg/mL

Observed MIC, Cryptococcus neoformans, C[C@H]1N(C(=O)c2ccc(C(F)(F)F)cc2)C[C@H](O)O[C@@]1(Cn1cncn1)c1ccc(F)cc1F (stereo in doubt; (-)-39a) : 4 µg/mL

Observed MIC, Cryptococcus neoformans, CC(=O)N1CCN(c2ccc(OC[C@H]3CO[C@](Cn4ccnc4)(c4ccc(Cl)cc4Cl)O3)cc2)CC1 [KETOCONAZOLE] : 2 µg/mL

Observed MIC, Cryptococcus neoformans, C[C@H]1N(C(=O)c2ccc(C(F)(F)F)cc2)CCO[C@@]1(Cn1cncn1)c1ccc(F)cc1F (stereo in doubt; (-)-41) : 2 µg/mL

Observed MIC, Cryptococcus neoformans, OC(Cn1cncn1)(Cn1cncn1)c1ccc(F)cc1F [FLUCONAZOLE] : 8 µg/mL

* * *

Please provide measured MFC for the entries that follow.
System: Candida albicans
Experiment: Evaluation of In vitro antifungal activity against Candida albicans 60 by broth macro dilution method

What the record says about CC(=O)N1CCN(c2ccc(OC[C@H]3CO[C@](Cn4ccnc4)(c4ccc(Cl)cc4Cl)O3)cc2)CC1 : MFC is > 16 µg/mL

What the record says about C[C@@H](NC(=O)c1ccc(C(F)(F)F)cc1)[C@](O)(Cn1cncn1)c1ccc(F)cc1F : MFC is > 64 µg/mL

What the record says about C[C@H]1N(C(=O)c2ccc(C(F)(F)F)cc2)C[C@H](O)O[C@@]1(Cn1cncn1)c1ccc(F)cc1F (stereo in doubt; (-)-39a) : MFC is > 64 µg/mL

What the record says about OC(Cn1cncn1)(Cn1cncn1)c1ccc(F)cc1F : MFC is > 64 µg/mL

What the record says about C[C@H]1N(C(=O)c2ccc(C(F)(F)F)cc2)CCO[C@@]1(Cn1cncn1)c1ccc(F)cc1F (stereo in doubt; (-)-41) : MFC is > 64 µg/mL

* * *

System: Candida albicans
Test: In vitro evaluation of minimum inhibitory concentration against Candida albicans 76
Assay type: functional
Conditions: Candida albicans; read-out: MIC
Please provide measured MIC for the entries that follow.
Give the value in µg/mL but do not write µg/mL after it.

What the record says about C[C@H]1N(C(=O)c2ccc(OCC(F)(F)C(F)F)cc2)CC(=O)O[C@@]1(Cn1cncn1)c1ccc(Cl)cc1Cl (racemic) : MIC is 20

What the record says about C[C@H]1N(C(=O)c2ccc(OCC(F)(F)C(F)F)cc2)C[C@H](O)O[C@@]1(Cn1cncn1)c1ccc(F)cc1F (racemic) : MIC is 80

What the record says about C[C@H]1N(C(=O)c2ccc(C(F)(F)F)cc2F)CC(=O)O[C@@]1(Cn1cncn1)c1ccc(F)cc1F (racemic) : MIC is 40

What the record says about C[C@@H](NC(=O)c1ccc(C(F)(F)F)cc1)[C@](O)(Cn1cncn1)c1ccc(F)cc1F : MIC is 80

What the record says about CCC(C)n1ncn(-c2ccc(N3CCN(c4ccc(OC[C@H]5CO[C@](Cn6cncn6)(c6ccc(Cl)cc6Cl)O5)cc4)CC3)cc2)c1=O (some centres not stated) [ITRACONAZOLE] : MIC is 0.63

What the record says about OC(Cn1cncn1)(Cn1cncn1)c1ccc(F)cc1F [FLUCONAZOLE] : MIC is 40

What the record says about C[C@H]1N(C(=O)c2ccc(C(F)(F)F)cc2)C[C@H](O)O[C@@]1(Cn1cncn1)c1ccc(Cl)cc1Cl (racemic) : MIC is 5

What the record says about CC(=O)N1CCN(c2ccc(OC[C@H]3CO[C@](Cn4ccnc4)(c4ccc(Cl)cc4Cl)O3)cc2)CC1 [KETOCONAZOLE] : MIC is 0.15

* * *

System: Candida albicans
Test: Evaluation of In vitro antifungal activity against Candida albicans C52 by broth macro dilution method
Format: functional
Please provide measured MFC for the entries that follow.

Observed MFC, Candida albicans, OC(Cn1cncn1)(Cn1cncn1)c1ccc(F)cc1F [FLUCONAZOLE] : > 64 µg/mL

Observed MFC, Candida albicans, C[C@H]1N(C(=O)c2ccc(C(F)(F)F)cc2)C[C@H](O)O[C@@]1(Cn1cncn1)c1ccc(F)cc1F (stereo in doubt; (-)-39a) : > 64 µg/mL

Observed MFC, Candida albicans, C[C@@H](NC(=O)c1ccc(C(F)(F)F)cc1)[C@](O)(Cn1cncn1)c1ccc(F)cc1F : > 64 µg/mL

Observed MFC, Candida albicans, CC(=O)N1CCN(c2ccc(OC[C@H]3CO[C@](Cn4ccnc4)(c4ccc(Cl)cc4Cl)O3)cc2)CC1 [KETOCONAZOLE] : > 16 µg/mL

Observed MFC, Candida albicans, C[C@H]1N(C(=O)c2ccc(C(F)(F)F)cc2)CCO[C@@]1(Cn1cncn1)c1ccc(F)cc1F (stereo in doubt; (-)-41) : > 64 µg/mL

* * *

System: Nakaseomyces glabratus
Assay: Evaluation of In vitro antifungal activity against Torulopsis glabrata 78 by broth macro dilution method
Type: functional
recorded.endpoint: MIC (µg/mL)
Give the value in µg/mL but do not write µg/mL after it.

What the record says about C[C@@H](NC(=O)c1ccc(C(F)(F)F)cc1)[C@](O)(Cn1cncn1)c1ccc(F)cc1F : MIC is 8

What the record says about C[C@H]1N(C(=O)c2ccc(C(F)(F)F)cc2)CCO[C@@]1(Cn1cncn1)c1ccc(F)cc1F (stereo in doubt; (-)-41) : MIC is 16

What the record says about OC(Cn1cncn1)(Cn1cncn1)c1ccc(F)cc1F : MIC is 32

What the record says about CC(=O)N1CCN(c2ccc(OC[C@H]3CO[C@](Cn4ccnc4)(c4ccc(Cl)cc4Cl)O3)cc2)CC1 : MIC is 8

* * *

Please provide measured MIC for the entries that follow.
Test system: Candida tropicalis
Assay: In vitro evaluation of minimum inhibitory concentration against Candida tropicalis 2.11
Format: functional
Conditions: Candida tropicalis; read-out: MIC
Give the value in mg/L but do not write mg/L after it.

What the record says about OC(Cn1cncn1)(Cn1cncn1)c1ccc(F)cc1F [FLUCONAZOLE] : MIC is 80

What the record says about CC(=O)N1CCN(c2ccc(OC[C@H]3CO[C@](Cn4ccnc4)(c4ccc(Cl)cc4Cl)O3)cc2)CC1 [KETOCONAZOLE] : MIC is 2.5

What the record says about C[C@H]1N(C(=O)c2ccc(OCC(F)(F)C(F)F)cc2)CC(=O)O[C@@]1(Cn1cncn1)c1ccc(Cl)cc1Cl (racemic) : MIC is 80

* * *

Test system: Candida albicans
Assay: Evaluation of In vitro antifungal activity against Candida albicans 76 by broth macro dilution method
Assay type: functional
recorded.endpoint: MFC

Observed MFC, Candida albicans, CC(=O)N1CCN(c2ccc(OC[C@H]3CO[C@](Cn4ccnc4)(c4ccc(Cl)cc4Cl)O3)cc2)CC1 [KETOCONAZOLE] : > 16 µg/mL

Observed MFC, Candida albicans, C[C@H]1N(C(=O)c2ccc(C(F)(F)F)cc2)C[C@H](O)O[C@@]1(Cn1cncn1)c1ccc(F)cc1F (stereo in doubt; (-)-39a) : > 64 µg/mL

Observed MFC, Candida albicans, C[C@H]1N(C(=O)c2ccc(C(F)(F)F)cc2)CCO[C@@]1(Cn1cncn1)c1ccc(F)cc1F (stereo in doubt; (-)-41) : > 64 µg/mL

Observed MFC, Candida albicans, C[C@@H](NC(=O)c1ccc(C(F)(F)F)cc1)[C@](O)(Cn1cncn1)c1ccc(F)cc1F : > 64 µg/mL

Observed MFC, Candida albicans, OC(Cn1cncn1)(Cn1cncn1)c1ccc(F)cc1F [FLUCONAZOLE] : > 64 µg/mL

* * *

Please provide measured MIC for the entries that follow.
Tested on: Rhodotorula mucilaginosa
Assay: In vitro evaluation of minimum inhibitory concentration against Rhodotorula rubra 16
Format: functional
Give the value in µg/mL but do not write µg/mL after it.

Observed MIC, Rhodotorula mucilaginosa, C[C@H]1N(C(=O)c2ccc(C(F)(F)F)cc2)CCO[C@@]1(Cn1cncn1)c1ccc(F)cc1F (racemic) : 40

Observed MIC, Rhodotorula mucilaginosa, C[C@H]1N(C(=O)c2ccc(C(F)(F)F)cc2)CCO[C@@]1(Cn1cncn1)c1ccc(F)cc1F (stereo in doubt; (-)-41) : 5

Observed MIC, Rhodotorula mucilaginosa, C[C@H]1N(C(=O)c2ccc(C(F)(F)F)cc2)CC(=O)O[C@@]1(Cn1cncn1)c1ccc(Cl)cc1Cl (racemic) : 80

Observed MIC, Rhodotorula mucilaginosa, C[C@@H](NC(=O)c1ccc(C(F)(F)F)cc1)[C@](O)(Cn1cncn1)c1ccc(F)cc1F (racemic) : 2.5

* * *

Tested on: Meyerozyma guilliermondii
Assay: Evaluation of In vitro antifungal activity against Candida guilliermondii 26 by broth macro dilution method
Assay type: functional
Please provide measured MIC for the entries that follow.
Give the value in µg/mL but do not write µg/mL after it.

Observed MIC, Meyerozyma guilliermondii, OC(Cn1cncn1)(Cn1cncn1)c1ccc(F)cc1F : 8

Observed MIC, Meyerozyma guilliermondii, C[C@@H](NC(=O)c1ccc(C(F)(F)F)cc1)[C@](O)(Cn1cncn1)c1ccc(F)cc1F : 0.25

Observed MIC, Meyerozyma guilliermondii, C[C@H]1N(C(=O)c2ccc(C(F)(F)F)cc2)C[C@H](O)O[C@@]1(Cn1cncn1)c1ccc(F)cc1F (stereo in doubt; (-)-39a) : 32

Observed MIC, Meyerozyma guilliermondii, CC(=O)N1CCN(c2ccc(OC[C@H]3CO[C@](Cn4ccnc4)(c4ccc(Cl)cc4Cl)O3)cc2)CC1 : 0.125

Observed MIC, Meyerozyma guilliermondii, C[C@H]1N(C(=O)c2ccc(C(F)(F)F)cc2)CCO[C@@]1(Cn1cncn1)c1ccc(F)cc1F (stereo in doubt; (-)-41) : 8
